# method: HILIC, Merck SeQuant ZIC-pHILIC, 150 × 2.1 mm, 5 µm, 40 °C, 0.3 mL/min, estimated dead time 1.1 min; A: acetonitrile; B: water + 2.8 mM ammonium formate, pH 9; gradient (min/%B) 0/5 1/5 10/51 13/51 13.1/5 20/5
# experimental_conditions: stereoisomer not certain
Label TRUE when LC retention time is strictly below 7 min; otherwise label FALSE.

Consider the worked cases shown below.
Nc1nc2c(ncn2C2OC(COP(=O)(O)OP(=O)(O)O)C(O)C2O)c(=O)[nH]1 (stereo not drawn) [GUANOSINE DIPHOSPHATE]	FALSE
O=C(O)c1cccc([O-])c1 [3-HYDROXYBENZOATE]	TRUE
O=C(O)Cc1c[nH]c2ccc(O)cc12 [5-HYDROXYINDOLEACETATE]	TRUE
Nc1nc2c(c(=O)[nH]1)N=C(CNc1ccc(C(=O)NC(CCC(=O)O)C(=O)O)cc1)CN2 (stereo not drawn) [DIHYDROFOLATE]	FALSE
O=C1CC(C(=O)[O-])NC(=O)N1 (stereo not drawn) [DIHYDROOROTATE]	FALSE
CCCC(N)C(=O)O (stereo not drawn)	FALSE

# input Given the entry Nc1ncnc2c1ncn2C1OC(COP(=O)(O)OP(=O)(O)OC2OC(CO)C(O)C(O)C2O)C(O)C1O (stereo not drawn) , would its reported LC retention time be below 7 min?
# output FALSE

# input Consider the compound CC(CCC(=O)NCC(=O)O)C1CCC2C3C(O)CC4CC(O)CCC4(C)C3CCC12C (stereo not drawn) [GLYCOCHENODEOXYCHOLATE] . Is its LC retention time strictly less than 7 min?
# output TRUE

# input Below 7 min on LC retention time? Entry O=C(O)CCCCCC(=O)O [6-CARBOXYHEXANOATE]
# output TRUE

* * *

# method: HILIC, Waters ACQUITY UPLC BEH Amide, 150 × 2.1 mm, 1.7 µm, 40 °C, 0.5 mL/min, estimated dead time 0.66 min; A: 5% water + 95% acetonitrile; B: 70% water + 30% acetonitrile + 10 mM ammonium formate, pH 6.5; gradient (min/%B) 0/0 2/0 20/70 23/70 24/0 31/0
# experimental_conditions: stereoisomer not certain
measured_quantity: LC retention time

O=C([O-])CCCCC(=O)[O-] [ADIPATE]	5.26 min
CC(CCC(=O)O)C1CCC2C3CCC4CC(O)CCC4(C)C3CC(O)C12C (centres undefined) [DEOXYCHOLATE]	1.01 min

# input Given the molecule "CC(C)CC(=O)C(=O)O" , write its reported LC retention time.
# output 1.86 min

# input Please give measured LC retention time of the following entry: O=c1[nH]c(=O)c2nccnc2[nH]1 [2,4-DIHYDROXYPTERIDINE]
# output 1.79 min

* * *

# method: RP, Phenomenex Kinetex C18, 150 × 2.1 mm, 1.7 µm, 30 °C, 0.3 mL/min, estimated dead time 1.1 min; A: water + 0.1% formic acid, pH 3; B: acetonitrile + 0.1% formic acid, pH 3; gradient (min/%B) 0/2 14/100 17/100 17.1/2 25/2
# experimental_conditions: stereoisomer not certain
Mark each entry yes if its LC retention time sits below 4 min, and no for all others.

O=C(O)CCCC(=O)O [GLUTARATE]	yes
O=c1cccc(O)[nH]1 [2,6-DIHYDROXYPYRIDINE]	yes
O=C(O)CNC(=O)c1ccccc1 [HIPPURATE]	no

# input A record lists O=C(O)CCCCC1SCC2NC(=O)NC21 (stereo unspecified) . Is its LC retention time below 4 min?
# output no

# input A record lists "CSCC[C@H](NC=O)C(=O)O" . Is its LC retention time below 4 min?
# output yes

# input Consider "CC(C)=CCNc1ncnc2nc[nH]c12" . Does its LC retention time lie strictly below 4 min?
# output no
